- System: S. aureus 50774
Listing of recorded MIC by entry.
Report as: number unit

Here are 5 compounds together with their reported answers.
Cl.NC[C@@H]1CN(c2nc3c(cc2F)c(=O)c(C(=O)O)cn3C2CC2)C[C@@H]1F (relative stereo) [Compound No. 1-cis.HCl] : 0.025 µg/mL
Cl.NC[C@@H]1CN(c2nc3c(cc2F)c(=O)c(C(=O)O)cn3C2CC2)C[C@H]1F (relative stereo) [Compound No. 1-trans.HCl] : 0.025 µg/mL
CCn1cc(C(=O)O)c(=O)c2cc(F)c(N3CCC(CN)C3)nc21.Cl (stereo not drawn) [Compound A, reference compound] : 0.2 µg/mL
CCNC[C@@H]1CN(c2nc3c(cc2F)c(=O)c(C(=O)O)cn3C2CC2)C[C@H]1F.Cl (relative stereo) [4-trans.HCl] : 0.025 µg/mL
Cl.NC[C@@H]1CN(c2nc3c(cc2F)c(=O)c(C(=O)O)cn3C2CC2)C[C@@H]1Cl (relative stereo) [2-cis.HCl] : 0.025 µg/mL

From here, focus on the item given below.
Provide value of MIC for this record tested with S. aureus 50774: Cl.NCC1CCN(c2nc3c(cc2F)c(=O)c(C(=O)O)cn3C2CC2)C1 (stereo not drawn) [Compound B, reference compound]
0.025 µg/mL

From: patent US4738968A
